experiment-summary: Wnt pathway potentiators raising nuclear beta-catenin – imaging, WNT3A-conditioned medium, mouse C2C12, NPC library, primary screen (AID 1117326); further: reference of the scale not given here
condition-set: stimulation, at 2 µM, stronger effect = higher value
Reported nuclear beta-catenin stimulation by item:
property-measured: nuclear beta-catenin stimulation (%)

- molecule: "COc1ccc2cc1Oc1ccc(cc1)C[C@H]1c3c(cc4c(c3Oc3cc5c(cc3OC)CCN(C)[C@@H]5C2)OCO4)CCN1C"
  property-measured: "nuclear beta-catenin stimulation"
  scale-unit: "%"
  endpoint-value: 7.1
- molecule: "CCCCCCCCNC(C)C(O)c1ccc(SC(C)C)cc1 (configuration not stated)"
  property-measured: "nuclear beta-catenin stimulation"
  scale-unit: "%"
  endpoint-value: 1.4
- molecule: "COc1cc(C)nc(-n2nc(C)cc2OC)n1"
  property-measured: "nuclear beta-catenin stimulation"
  scale-unit: "%"
  endpoint-value: -0.3
- molecule: "CCOc1ccc2nc3cc(N)ccc3c(N)c2c1"
  property-measured: "nuclear beta-catenin stimulation"
  scale-unit: "%"
  endpoint-value: 0.7
- molecule: "O=C(O)[C@@H](O)[C@H](O)[C@H](O)[C@@H](O)C(=O)O"
  property-measured: "nuclear beta-catenin stimulation"
  scale-unit: "%"
  endpoint-value: -0.3
- molecule: "Nc1ccc(S(=O)(=O)NC(=O)c2ccccc2)cc1"
  property-measured: "nuclear beta-catenin stimulation"
  scale-unit: "%"
  endpoint-value: 1.1
- molecule: "CC(C)(O)c1ccccc1CC[C@@H](SCC1(CC(=O)O)CC1)c1cccc(/C=C/c2ccc3ccc(Cl)cc3n2)c1"
  property-measured: "nuclear beta-catenin stimulation"
  scale-unit: "%"
  endpoint-value: -0.2
- molecule: "CC(=O)Nc1ccc(CC(=O)O)cc1"
  property-measured: "nuclear beta-catenin stimulation"
  scale-unit: "%"
  endpoint-value: 0.4
- molecule: "CC1=C(C(=O)O)N2C(=O)[C@@H](NC(=O)[C@H](N)c3ccc(O)cc3)[C@H]2SC1"
  property-measured: "nuclear beta-catenin stimulation"
  scale-unit: "%"
  endpoint-value: 3.3
- molecule: "CO[C@@]1(NC(=O)C(C(=O)O)c2ccc(O)cc2)C(=O)N2C(C(=O)O)=C(CSc3nnnn3C)CO[C@@H]21 (some centres not stated)"
  property-measured: "nuclear beta-catenin stimulation"
  scale-unit: "%"
  endpoint-value: -0.2
- molecule: "CC1(C)OC(=O)NC1=O"
  property-measured: "nuclear beta-catenin stimulation"
  scale-unit: "%"
  endpoint-value: 2.2
- molecule: "COc1cc(C(=O)NCc2ccc(OCCN(C)C)cc2)cc(OC)c1OC"
  property-measured: "nuclear beta-catenin stimulation"
  scale-unit: "%"
  endpoint-value: 5.8
- molecule: "CC(C(=O)O)c1ccc(CC2CCCC2=O)cc1 (configuration not stated)"
  property-measured: "nuclear beta-catenin stimulation"
  scale-unit: "%"
  endpoint-value: -0.2
- molecule: "O=C(O)/C=C/c1ccc(Cn2ccnc2)cc1"
  property-measured: "nuclear beta-catenin stimulation"
  scale-unit: "%"
  endpoint-value: 1.2
- molecule: "Nc1ccc(C(=O)Oc2ccccc2)c(O)c1"
  property-measured: "nuclear beta-catenin stimulation"
  scale-unit: "%"
  endpoint-value: 2.9
- molecule: "CCCCCC(C)N (configuration not stated)"
  property-measured: "nuclear beta-catenin stimulation"
  scale-unit: "%"
  endpoint-value: 3.7
- molecule: "CC(=O)OCC1=C(C(=O)O)N2C(=O)[C@@H](NC(=O)CSc3ccncc3)[C@H]2SC1"
  property-measured: "nuclear beta-catenin stimulation"
  scale-unit: "%"
  endpoint-value: 1.1
- molecule: "C#C[C@]1(O)CC[C@H]2[C@@H]3CCc4cc(O)ccc4[C@H]3CC[C@@]21C"
  property-measured: "nuclear beta-catenin stimulation"
  scale-unit: "%"
  endpoint-value: 0.8
- molecule: "C[C@H](NC(CCc1ccccc1)C(=O)O)C(=O)N1CCC[C@H]1C(=O)O (some centres not stated)"
  property-measured: "nuclear beta-catenin stimulation"
  scale-unit: "%"
  endpoint-value: -2.8
- molecule: "N[C@@H](Cc1ccc(O)c(O)c1)C(=O)O"
  property-measured: "nuclear beta-catenin stimulation"
  scale-unit: "%"
  endpoint-value: -0.9
- molecule: "CC[C@@]1(O)C(=O)OCc2c1cc1n(c2=O)Cc2cc3c(CN(C)C)c(O)ccc3nc2-1"
  property-measured: "nuclear beta-catenin stimulation"
  scale-unit: "%"
  endpoint-value: 20.6
- molecule: "Cc1nc2sccn2c(=O)c1CCN1CCC(=C(c2ccc(F)cc2)c2ccc(F)cc2)CC1"
  property-measured: "nuclear beta-catenin stimulation"
  scale-unit: "%"
  endpoint-value: 4.3
- molecule: "NC(N)=NC(=O)Cc1c(Cl)cccc1Cl"
  property-measured: "nuclear beta-catenin stimulation"
  scale-unit: "%"
  endpoint-value: 2.6
- molecule: "Nc1cc(-c2ccncc2)c[nH]c1=O"
  property-measured: "nuclear beta-catenin stimulation"
  scale-unit: "%"
  endpoint-value: 1.7
- molecule: "C[C@@H]1C[C@H]2[C@@H]3C[C@H](F)C4=CC(=O)C(Cl)=C[C@]4(C)[C@@]3(F)[C@@H](O)C[C@]2(C)[C@@]1(O)C(=O)CO"
  property-measured: "nuclear beta-catenin stimulation"
  scale-unit: "%"
  endpoint-value: 1.3
- molecule: "Cc1ccc2c(Cl)cc(Cl)c(O)c2n1"
  property-measured: "nuclear beta-catenin stimulation"
  scale-unit: "%"
  endpoint-value: -1
- molecule: "O=C(Cn1ccnc1[N+](=O)[O-])NCCO"
  property-measured: "nuclear beta-catenin stimulation"
  scale-unit: "%"
  endpoint-value: 0.3
- molecule: "O=C(O)c1ccccc1OP(=O)(O)O"
  property-measured: "nuclear beta-catenin stimulation"
  scale-unit: "%"
  endpoint-value: 2.9
- molecule: "Oc1c(I)cc(I)c2cccnc12"
  property-measured: "nuclear beta-catenin stimulation"
  scale-unit: "%"
  endpoint-value: 1
- molecule: "CCc1nn(CCCN2CCN(c3cccc(Cl)c3)CC2)c(=O)n1CCOc1ccccc1"
  property-measured: "nuclear beta-catenin stimulation"
  scale-unit: "%"
  endpoint-value: 3
- molecule: "CC1(C)S[C@@H]2[C@H](NC(=O)[C@H](N)c3ccccc3)C(=O)N2[C@H]1C(=O)O"
  property-measured: "nuclear beta-catenin stimulation"
  scale-unit: "%"
  endpoint-value: -0.4
- molecule: "CS(=O)(=O)c1ccc([C@@H](O)[C@@H](CO)NC(=O)C(Cl)Cl)cc1"
  property-measured: "nuclear beta-catenin stimulation"
  scale-unit: "%"
  endpoint-value: 2.3
- molecule: "NC(=O)NC1NC(=O)NC1=O (configuration not stated)"
  property-measured: "nuclear beta-catenin stimulation"
  scale-unit: "%"
  endpoint-value: 1.1
- molecule: "Nc1[nH]c(=O)ncc1F"
  property-measured: "nuclear beta-catenin stimulation"
  scale-unit: "%"
  endpoint-value: 1.7
- molecule: "CCCN[C@H]1CCc2nc(N)sc2C1"
  property-measured: "nuclear beta-catenin stimulation"
  scale-unit: "%"
  endpoint-value: 0.5
- molecule: "CCCCc1ccc2nc(NC(=O)OC)[nH]c2c1"
  property-measured: "nuclear beta-catenin stimulation"
  scale-unit: "%"
  endpoint-value: 61.1
- molecule: "COc1ccc(C(=O)NCc2ccc(OCCN(C)C)cc2)cc1OC"
  property-measured: "nuclear beta-catenin stimulation"
  scale-unit: "%"
  endpoint-value: 1
- molecule: "CC1CC(OC(=O)C(O)c2ccccc2)CC(C)(C)N1C (configuration not stated)"
  property-measured: "nuclear beta-catenin stimulation"
  scale-unit: "%"
  endpoint-value: -0.1
- molecule: "CCN(CC)CCNC(=O)c1cc(Cl)c(N)cc1OC"
  property-measured: "nuclear beta-catenin stimulation"
  scale-unit: "%"
  endpoint-value: -1.4
- molecule: "CCOc1cc(CC(=O)N[C@@H](CC(C)C)c2ccccc2N2CCCCC2)ccc1C(=O)O"
  property-measured: "nuclear beta-catenin stimulation"
  scale-unit: "%"
  endpoint-value: 0.2
- molecule: "CCOC(=O)n1ccn(C)c1=S"
  property-measured: "nuclear beta-catenin stimulation"
  scale-unit: "%"
  endpoint-value: -0.4
- molecule: "CC(c1cc2ccccc2s1)N(O)C(N)=O (configuration not stated)"
  property-measured: "nuclear beta-catenin stimulation"
  scale-unit: "%"
  endpoint-value: 0.8
- molecule: "Nc1ccc(S(N)(=O)=O)cc1"
  property-measured: "nuclear beta-catenin stimulation"
  scale-unit: "%"
  endpoint-value: 0.5
- molecule: "COc1cc(NS(=O)(=O)c2ccc(N)cc2)nc(OC)n1"
  property-measured: "nuclear beta-catenin stimulation"
  scale-unit: "%"
  endpoint-value: 0.4
- molecule: "CC(C)(Sc1cc(C(C)(C)C)c(O)c(C(C)(C)C)c1)Sc1cc(C(C)(C)C)c(O)c(C(C)(C)C)c1"
  property-measured: "nuclear beta-catenin stimulation"
  scale-unit: "%"
  endpoint-value: 6
- molecule: "O=C(CCBr)N1CCN(C(=O)CCBr)CC1"
  property-measured: "nuclear beta-catenin stimulation"
  scale-unit: "%"
  endpoint-value: 1.7
- molecule: "COC(=O)Nc1nc2ccc(S(=O)c3ccccc3)cc2[nH]1 (configuration not stated)"
  property-measured: "nuclear beta-catenin stimulation"
  scale-unit: "%"
  endpoint-value: 58.1
